For each of the compounds below, state its LD50 at 336 h.
Assay: Acute oral toxicity, single administration, 14 days observation
Details: mouse, in vivo, male mice, 2% carboxymethylcellulose with 5% Tween 80
Protocol: Animal trials were performed with mice and male rats free from specific pathogenic organisms, subject to a preliminary water diet for 18 hours. All animals were kept under observation during 14 days after a single oral administration, in order to detect any eventuality of toxic after effects. The median lethal dose LD50 and its confidence limits were computed by the graphic method of J. T. Litchfield and F. Wilcoxon. […]
Respond numerically; units are mg/kg and should not be typed.

## Input Consider the compound COc1c2occc2cc2ccc(=O)oc12 [8-methoxypsoralen, reference compound] and give its measured LD50 at 336 h.
## Output 875

## Input Consider the compound "COc1c2ccoc2cc2oc(=O)ccc12" and give its measured LD50 at 336 h.
## Output 8100

* * *

Experiment: Acute oral toxicity, single administration, 14 days observation
Conditions: rat, in vivo, male rats, 2% carboxymethylcellulose with 5% Tween 80
Description: Animal trials were performed with mice and male rats free from specific pathogenic organisms, subject to a preliminary water diet for 18 hours. All animals were kept under observation during 14 days after a single oral administration, in order to detect any eventuality of toxic after effects. The median lethal dose LD50 and its confidence limits were computed by the graphic method of J. T. Litchfield and F. Wilcoxon. […]
ASSAY_READOUT: LD50 at 336 h (mg/kg)
Respond numerically; units are mg/kg and should not be typed.

## Input Consider the compound COc1c2occc2cc2ccc(=O)oc12 [8-methoxypsoralen, reference compound] and give its measured LD50 at 336 h.
## Output 4400

This collection of values is drawn from patent US5023270A.
